Target: T1, IFN-αF (human, UniProt P01568 24-189)
T1 chain: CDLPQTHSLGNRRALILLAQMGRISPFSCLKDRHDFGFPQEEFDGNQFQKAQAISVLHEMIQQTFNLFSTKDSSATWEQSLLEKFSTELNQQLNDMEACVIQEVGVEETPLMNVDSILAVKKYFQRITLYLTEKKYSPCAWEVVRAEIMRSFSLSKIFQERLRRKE
Assay: cell-based or functional assay
assay readout: IC50, ISRE assay (pM)
Numbers only, in pM.

IFWM3410 (antibody, IgG1, V domains shown, mAb; IgG1/kappa said of the parent and of selected mAbs; also called IFWB3145) VH: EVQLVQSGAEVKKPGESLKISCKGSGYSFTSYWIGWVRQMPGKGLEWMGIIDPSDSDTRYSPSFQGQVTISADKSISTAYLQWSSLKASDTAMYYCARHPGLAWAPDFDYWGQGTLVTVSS VL: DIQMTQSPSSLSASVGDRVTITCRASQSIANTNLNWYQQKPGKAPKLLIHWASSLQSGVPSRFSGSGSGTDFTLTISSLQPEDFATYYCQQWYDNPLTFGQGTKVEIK : 77
IFWM3416 (antibody, IgG1, V domains shown, mAb; IgG1/kappa said of the parent and of selected mAbs; also called IFWB3151) VH: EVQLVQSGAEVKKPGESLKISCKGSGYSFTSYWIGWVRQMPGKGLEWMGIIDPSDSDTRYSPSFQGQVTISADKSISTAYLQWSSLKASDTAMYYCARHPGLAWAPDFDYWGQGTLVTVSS VL: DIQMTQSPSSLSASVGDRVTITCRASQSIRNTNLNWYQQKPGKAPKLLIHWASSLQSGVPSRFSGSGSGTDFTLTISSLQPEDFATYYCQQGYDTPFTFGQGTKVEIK : 64
IFWM3310 (antibody, IgG1, V domains shown) VH: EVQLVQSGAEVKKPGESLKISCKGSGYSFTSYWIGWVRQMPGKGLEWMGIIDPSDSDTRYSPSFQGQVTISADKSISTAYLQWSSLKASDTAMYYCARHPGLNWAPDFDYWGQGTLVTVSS VL: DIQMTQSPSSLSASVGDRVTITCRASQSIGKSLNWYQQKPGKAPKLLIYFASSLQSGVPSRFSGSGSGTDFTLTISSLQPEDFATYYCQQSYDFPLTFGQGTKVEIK : 111
IFWM3421 (antibody, IgG1, V domains shown) VH: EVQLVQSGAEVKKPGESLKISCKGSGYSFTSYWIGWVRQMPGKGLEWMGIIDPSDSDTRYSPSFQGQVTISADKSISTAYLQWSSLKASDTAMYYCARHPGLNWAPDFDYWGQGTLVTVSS VL: DIQMTQSPSSLSASVGDRVTITCRASQSIDGFLNWYQQKPGKAPKLLIYFASSLQSGVPSRFSGSGSGTDFTLTISSLQPEDFATYYCQQSYDLPITFGQGTKVEIK : 11

We next turn to a different binder, shown below.
Lookup: Quick one: give measured IC50, ISRE assay for IFWM3314 (antibody, IgG1, V domains shown) VH: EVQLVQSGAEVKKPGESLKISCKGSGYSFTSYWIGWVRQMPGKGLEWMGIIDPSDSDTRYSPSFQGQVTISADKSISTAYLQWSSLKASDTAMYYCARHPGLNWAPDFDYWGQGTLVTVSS VL: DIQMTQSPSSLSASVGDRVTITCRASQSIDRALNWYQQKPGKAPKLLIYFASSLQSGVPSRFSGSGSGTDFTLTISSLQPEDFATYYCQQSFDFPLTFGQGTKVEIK
Found: 58
